Here's what we have: pIC50 numbers for UniProtKB P12931.
Sequence (P12931 whole entry): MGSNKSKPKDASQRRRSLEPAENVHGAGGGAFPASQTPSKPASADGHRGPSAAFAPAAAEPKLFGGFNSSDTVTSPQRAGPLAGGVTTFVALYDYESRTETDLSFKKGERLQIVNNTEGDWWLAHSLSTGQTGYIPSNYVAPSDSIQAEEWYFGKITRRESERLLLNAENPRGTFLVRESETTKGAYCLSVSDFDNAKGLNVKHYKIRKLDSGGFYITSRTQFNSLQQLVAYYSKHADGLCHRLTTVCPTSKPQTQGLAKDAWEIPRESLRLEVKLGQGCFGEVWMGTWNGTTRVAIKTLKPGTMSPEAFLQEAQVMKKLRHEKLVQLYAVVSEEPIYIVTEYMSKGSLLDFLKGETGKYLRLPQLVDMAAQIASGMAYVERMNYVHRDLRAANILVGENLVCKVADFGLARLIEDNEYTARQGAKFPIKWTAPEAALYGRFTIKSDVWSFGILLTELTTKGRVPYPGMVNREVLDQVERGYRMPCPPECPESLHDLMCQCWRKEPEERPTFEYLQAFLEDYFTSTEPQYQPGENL
pIC50: −log10 of the molar value.
TEST_READOUT: pIC50

P. COc1cc2c(Nc3ccc(Sc4nccn4C)c(Cl)c3)c(C#N)cnc2cc1N1CCC(N2CCCC2)CC1
Q. COc1cc(Nc2c(C#N)cnc3cc(OCCCN4CCC(N5CCCCC5)CC4)c(OC)cc23)c(Cl)cc1Cl
Which one would you say has the larger pIC50 value: P , or Q ? Answer = label.
Q
(Q: 9.00, P: 6.55)

---

Measured melting point, listed per entry.

Answered examples (3):
# COMPOUND, melting point
rows = [
    ("COc1cc(Nc2c(C#N)cnc3cc(N4CCC(N5CCCC5)CC4)c(OC)cc23)c(Cl)cc1Cl [Example 31]", "225 to 227 °C"),
    ("COc1cc(Nc2c(C#N)cnc3cc(OCCCN4CCC(N5CCCCC5)CC4)c(OC)cc23)c(Cl)cc1Cl [Example 35]", "130 to 132 °C"),
    ("COCCOc1cc2c(Nc3ccc(Sc4nccn4C)c(Cl)c3)c(C#N)cnc2cc1N1CCC(N2CCCC2)CC1 [Example 17]", "238 to 241 °C"),
]

Now examine the next entry.
Item Cn1ccnc1Sc1ccc(Nc2c(C#N)cnc3cc(N4CCC(N5CCCC5)CC4)c(N)cc23)cc1Cl [Example 27] has what recorded melting point?
265 to 267 °C
